# Experimental system: T1, recombinant dog Aggrecan G1-IGD-G2 (dog, UniProt Q28343 20-693, limits assumed)
# T1 construct: also called Dog G1-IGD-G2
# Assay remarks: periplasmic extract ELISA

# Binder, OD 450 nm [OD 450 nm]
data = [
    ("C0101PMP601E09 (VHH, Tested as E. coli periplasmic extract; not shown: FLAG3 and His6 tags (phagemid pAX212)) VHH: DVQLVESGGGLVQPGGSLRLSCAASGLTFSTYAMGWFRQAPGKEREFVAAISWSGSRTYYADSVKGRFTISRDNSKNTVYLQMNSLRPEDTAVYYCAAYRRPRYSPTGTWDYWGQGTLVTVSS", 2.57),
    ("C0101PMP609C09 (VHH, Tested as E. coli periplasmic extract; not shown: FLAG3 and His6 tags (phagemid pAX212)) VHH: DVQLVESGGGLVQPGGSLRLSCAASGTIFSINVMGWYRQAPGKEREFVAAITTGGRTNYADSVKGRFTISRDNSKNTVYLQMNSLRPEDTAVYYCNAEVTTGWVGYSWYDYWGQGTMVTVSS", 1.52),
    ("C0101PMP601E08 (VHH, Tested as E. coli periplasmic extract; not shown: FLAG3 and His6 tags (phagemid pAX212)) VHH: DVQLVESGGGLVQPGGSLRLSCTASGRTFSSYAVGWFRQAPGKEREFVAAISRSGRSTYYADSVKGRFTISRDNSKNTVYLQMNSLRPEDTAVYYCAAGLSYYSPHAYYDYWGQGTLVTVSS", 0.57),
    ("C0101PMP604G01 (VHH, Tested as E. coli periplasmic extract; not shown: FLAG3 and His6 tags (phagemid pAX212)) VHH: DVQLVESGGGLVQPGGSLRLSCAASGRTFSSYTMGWFRQAPGKEREFVAAISWSGRTTYYADSVKGRFTISRDNSKNTVYLQMNSLRPEDTAVYYCAAYRRVRYTNLEVWDYWGQGTLVTVSS", 1.55),
]
